This collection of values is drawn from a collection of fitness landscapes (doi:10.1126/science.1257360).

Catalogue of variants with associated enrichment ratio
B1: PhoQ; a variant is named by its letters at X, in order, P23837 (parent)
chain: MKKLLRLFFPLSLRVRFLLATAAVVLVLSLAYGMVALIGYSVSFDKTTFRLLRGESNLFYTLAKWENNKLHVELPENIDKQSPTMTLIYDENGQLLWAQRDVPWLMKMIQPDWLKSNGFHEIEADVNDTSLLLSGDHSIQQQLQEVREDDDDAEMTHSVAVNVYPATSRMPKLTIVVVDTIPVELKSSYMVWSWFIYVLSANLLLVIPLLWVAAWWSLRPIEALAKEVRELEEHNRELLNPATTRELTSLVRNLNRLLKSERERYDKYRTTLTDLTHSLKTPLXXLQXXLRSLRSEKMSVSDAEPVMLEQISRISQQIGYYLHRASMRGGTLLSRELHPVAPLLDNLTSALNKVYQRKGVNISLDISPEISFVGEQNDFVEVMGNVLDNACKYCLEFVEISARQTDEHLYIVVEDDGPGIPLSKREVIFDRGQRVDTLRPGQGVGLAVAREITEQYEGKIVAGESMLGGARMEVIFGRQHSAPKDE

Variants of: B1
PROTOCOL_SUMMARY: enrichment ratio after two sorts for PhoP signalling (ratio (wild type AVST 3.29)); higher = more functional
STATED_CONDITIONS: with PhoP (E. coli)
In all, about 140,000 sequences were measured (“enrichment ratio after two sorts for PhoP signalling”: median about 0, highest 2% from about 11 on). Only a selection was taken, and the highest values are over-represented in it overall.

Here is how some variants turned out for enrichment ratio.
TGPK ... ≤ 0.25
DHDS ... ≤ 0.25
FFWT ... ≤ 0.25

Reported enrichment ratio for `GAKN` : what is it?
≤ 0.25

Reported enrichment ratio for `MGNR` : what is it?
≤ 0.25

Reported enrichment ratio for `DARD` : what is it?
≤ 0.25

Reported enrichment ratio for `YHMP` : what is it?
≤ 0.25

Reported enrichment ratio for `MMNP` : what is it?
≤ 0.25

Reported enrichment ratio for `DEDS` : what is it?
≤ 0.25

Reported enrichment ratio for `MTME` : what is it?
≤ 0.25

Reported enrichment ratio for `DMTW` : what is it?
≤ 0.25

Reported enrichment ratio for `VNML` : what is it?
14.6

Reported enrichment ratio for `VQMH` : what is it?
≤ 0.25

Reported enrichment ratio for `QFNA` : what is it?
≤ 0.25

Reported enrichment ratio for `YTWT` : what is it?
≤ 0.25

Reported enrichment ratio for `MVTG` : what is it?
≤ 0.25

Reported enrichment ratio for `TMAK` : what is it?
16.1

Reported enrichment ratio for `TMAM` : what is it?
26.9

Reported enrichment ratio for `TMDQ` : what is it?
≤ 0.25

Reported enrichment ratio for `NALL` : what is it?
5.99

Reported enrichment ratio for `MVFE` : what is it?
≤ 0.25

Reported enrichment ratio for `WFNQ` : what is it?
≤ 0.25
